Taken from ChEMBL document CHEMBL1144377.

test system: Human immunodeficiency virus 1; assay: Inhibitory concentration against wild type human immunodeficiency virus; format: functional, organism-based
OUTCOME_MEASURE: pIC50
One number for each entry, as −log10 of the molar value.

Please review the entries below; each comes with its answer.
Cc1nc(CN2CCN([C@H](C(=O)N[C@@H](Cc3ccccc3)[C@H](O)CN(CC(C)C)S(=O)(=O)c3cccc(CO)c3)C(C)C)C2=O)cs1    7.35
CC(=O)Nc1ccc(S(=O)(=O)N(CC(C)C)C[C@@H](O)[C@H](Cc2ccccc2)NC(=O)[C@H](C(C)C)N2CCN(Cc3csc(C)n3)C2=O)cc1    6.51
Cc1nc(CN2CCN([C@H](C(=O)N[C@@H](Cc3ccccc3)[C@H](O)CN(CC(C)C)S(=O)(=O)c3ccc(N)cc3)C(C)C)C2=O)cs1    7.51
Cc1nc(CN2CCN([C@H](C(=O)N[C@@H](Cc3ccccc3)[C@H](O)CN(CC(C)C)S(=O)(=O)c3ccc(C#N)cc3)C(C)C)C2=O)cs1    6.83

// input: 8 compounds below; output: pIC50 for each
1. C=Cc1ccc(S(=O)(=O)N(CC(C)C)C[C@@H](O)[C@H](Cc2ccccc2)NC(=O)[C@H](C(C)C)N2CCN(Cc3csc(C)n3)C2=O)cc1
2. Cc1nc(CN2CCN([C@H](C(=O)N[C@@H](Cc3ccccc3)[C@H](O)CN(CC(C)C)S(=O)(=O)c3ccc(C=O)cc3)C(C)C)C2=O)cs1
3. Cc1nc(CN2CCN([C@H](C(=O)N[C@@H](Cc3ccccc3)[C@H](O)CN(CC(C)C)S(=O)(=O)c3cccc(/C=N\O)c3)C(C)C)C2=O)cs1
4. Cc1nc(CN2CCN([C@H](C(=O)N[C@@H](Cc3ccccc3)[C@H](O)CN(CC(C)C)S(=O)(=O)c3ccc(/C=N\O)cc3)C(C)C)C2=O)cs1
5. CC(=O)c1ccc(S(=O)(=O)N(CC(C)C)C[C@@H](O)[C@H](Cc2ccccc2)NC(=O)[C@H](C(C)C)N2CCN(Cc3csc(C)n3)C2=O)cc1
6. CO/N=C\c1ccc(S(=O)(=O)N(CC(C)C)C[C@@H](O)[C@H](Cc2ccccc2)NC(=O)[C@H](C(C)C)N2CCN(Cc3csc(C)n3)C2=O)cc1
7. Cc1nc(CN2CCN([C@H](C(=O)N[C@@H](Cc3ccccc3)[C@H](O)CN(CC(C)C)S(=O)(=O)c3ccc(NC=O)cc3)C(C)C)C2=O)cs1
8. Cc1nc(CN2CCN([C@H](C(=O)N[C@@H](Cc3ccccc3)[C@H](O)CN(CC(C)C)S(=O)(=O)c3ccc(CO)cc3)C(C)C)C2=O)cs1

7.00
7.29
7.80
8.30
7.41
6.19
6.77
7.21

// input: 2 compounds below; output: pIC50 for each
1. Cc1nc(CN2CCN([C@H](C(=O)N[C@@H](Cc3ccccc3)[C@H](O)CN(CC(C)C)S(=O)(=O)c3ccc(C(=O)O)cc3)C(C)C)C2=O)cs1
2. Cc1nc(CN2CCN([C@H](C(=O)N[C@@H](Cc3ccccc3)[C@H](O)CN(CC(C)C)S(=O)(=O)c3ccc(C(=N)NO)cc3)C(C)C)C2=O)cs1

5.00
6.84

// input: 3 compounds below; output: pIC50 for each
1. Cc1nc(CN2CCN([C@H](C(=O)N[C@@H](Cc3ccccc3)[C@H](O)CN(CC(C)C)S(=O)(=O)c3ccc(C(N)=O)cc3)C(C)C)C2=O)cs1
2. CC(C)CN(C[C@@H](O)[C@H](Cc1ccccc1)NC(=O)O[C@H]1CCOC1)S(=O)(=O)c1ccc(N)cc1
3. Cc1nc(CN2CCN([C@H](C(=O)N[C@@H](Cc3ccccc3)[C@H](O)CN(CC(C)C)S(=O)(=O)c3ccc(NS(C)(=O)=O)cc3)C(C)C)C2=O)cs1

1. 6.60
2. 6.96
3. 5.92
